- system.tested: human JAK3 (aa 795-1124) (Homo sapiens)
- Construct: JAK3 (aa 795-1124); GST (N)
- Sequence (P52333 795-1124): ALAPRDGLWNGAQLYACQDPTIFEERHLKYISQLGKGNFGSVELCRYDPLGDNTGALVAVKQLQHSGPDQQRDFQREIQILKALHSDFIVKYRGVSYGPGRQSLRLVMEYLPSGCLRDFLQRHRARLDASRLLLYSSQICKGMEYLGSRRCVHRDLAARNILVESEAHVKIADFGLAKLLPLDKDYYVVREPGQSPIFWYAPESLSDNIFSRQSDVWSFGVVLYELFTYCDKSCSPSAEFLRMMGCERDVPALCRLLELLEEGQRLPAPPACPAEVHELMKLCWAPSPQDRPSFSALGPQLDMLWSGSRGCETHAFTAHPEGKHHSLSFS
- assay.name: In vitro JAK kinase assay (TR-FRET), JAK3
- experimental.context: catalytic domain GST-fusion; ATP 0.6 μM; peptide 140 nM; 30 minutes at room temperature
pIC50: −log10 of the molar value.
measurement.label: pIC50

Solved cases below.
>>> df
                                chem_smiles  result
0  N#Cc1ccn2ncc(-c3nccc(N[C@H]4CC[C@H](O)CC4)n3)c2c1  > 7.00
1  C[C@H](Nc1nc(-c2cnn3ccncc23)ncc1Cl)c1ccc(F)cn1  > 7.00
2  CN(c1ccnc(-c2cnn3ccncc23)n1)[C@@H]1CCCN(C(=O)CC#N)C1  > 7.00
3  O=C(CC(F)(F)F)N1CCC[C@@H](Nc2nc(-c3cnn4ccncc34)ncc2F)C1  > 7.00
4  C[C@H](Nc1ccnc(-c2cnn3ccncc23)n1)c1ccccc1  > 7.00

I would be grateful if you could provide pIC50 for each of the following entries.
1. Nc1cnc(-c2cnn3ccncc23)nc1NC1CCOCC1
2. N#Cc1ccn2ncc(-c3nccc(NCC(F)(F)F)n3)c2c1
3. N#CCC(=O)N1CCC[C@@H](Nc2ccnc(-c3cnn4ccc(C#N)cc34)n2)C1
4. COC[C@H](C)Nc1ccnc(-c2cnn3ccc(C#N)cc23)n1
5. N#Cc1ccc(N2CCC[C@@H](Nc3ccnc(-c4cnn5ccncc45)n3)C2)nc1

1: 6.00 to 7.00; 2: 6.00 to 7.00; 3: > 7.00; 4: > 7.00; 5: > 7.00

###

- system.tested: human JAK1 (aa 850-1154) (Homo sapiens)
- Construct: human JAK1 (aa 850-1154); GST (N)
- Sequence (P23458 850-1154): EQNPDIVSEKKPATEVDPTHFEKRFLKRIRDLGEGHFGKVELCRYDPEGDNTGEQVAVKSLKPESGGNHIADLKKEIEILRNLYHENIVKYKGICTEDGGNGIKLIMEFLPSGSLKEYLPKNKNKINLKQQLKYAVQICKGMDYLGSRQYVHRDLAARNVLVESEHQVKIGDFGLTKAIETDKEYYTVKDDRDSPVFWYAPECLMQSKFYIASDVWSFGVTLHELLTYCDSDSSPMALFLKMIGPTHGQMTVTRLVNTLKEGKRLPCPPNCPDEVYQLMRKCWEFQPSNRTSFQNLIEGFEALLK
- assay.name: In vitro JAK kinase assay (TR-FRET), JAK1
- experimental.context: catalytic domain GST-fusion; ATP 3 μM; peptide 60 nM; 30 minutes at room temperature
measurement.label: IC50

                                   compound  measurement_label          result
0  N#Cc1ccn2ncc(-c3nccc(N[C@H]4CC[C@H](O)CC4)n3)c2c1 [Example 19]               IC50  100 to 1000 nM
1  C[C@H](Nc1ccnc(-c2cnn3ccncc23)n1)c1ccccc1 [Example 21]               IC50        < 100 nM
2  COC[C@H](C)Nc1ccnc(-c2cnn3ccc(C#N)cc23)n1 [Example 5]               IC50  100 to 1000 nM
3  N#Cc1ccc(N2CCC[C@@H](Nc3ccnc(-c4cnn5ccncc45)n3)C2)nc1 [Example 25]               IC50  100 to 1000 nM
4  N#Cc1ccn2ncc(-c3nccc(NCC(F)(F)F)n3)c2c1 [Example 7]               IC50       > 1000 nM
5  C[C@H](Nc1nc(-c2cnn3ccncc23)ncc1Cl)c1ccc(F)cn1 [Example 37]               IC50        < 100 nM
6  Nc1cnc(-c2cnn3ccncc23)nc1NC1CCOCC1 [Example 35]               IC50  100 to 1000 nM
7  O=C(CC(F)(F)F)N1CCC[C@@H](Nc2nc(-c3cnn4ccncc34)ncc2F)C1 [Example 30]               IC50  100 to 1000 nM
8  N#CCC(=O)N1CCC[C@@H](Nc2ccnc(-c3cnn4ccc(C#N)cc34)n2)C1 [Example 14]               IC50  100 to 1000 nM

Given the compound CN(c1ccnc(-c2cnn3ccncc23)n1)[C@@H]1CCCN(C(=O)CC#N)C1 [Example 27] , what is its reported IC50?
100 to 1000 nM

The origin of these recorded values is patent US9206183B2.
